# Test system: 361931-004-R-J1-PDC multicell spheroid viability;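 also: spheroids exposed to agents for seven days before readout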
# assay: Anticancer human tumor 361931-004-R-J1-PDC patient-derived colon adenocarcinoma cell line growth inhibition [PI3K]
# conditionSet: second compound 10 µM; first compound 0.000316 µM; hits give low values
endpoint: viability, T/C (%)
Give the number; % is assumed, so skip it.

Look over these answered cases.
# compound, viability, T/C / %
data = [
    ("CC(=O)c1c(C)c2cnc(Nc3ccc(N4CCNCC4)cn3)nc2n(C2CCCC2)c1=O + CC(Nc1ncnc2nc[nH]c12)c1cc2cccc(Cl)c2c(=O)n1-c1ccccc1", 92.7),
    ("CC(=O)c1c(C)c2cnc(Nc3ccc(N4CCNCC4)cn3)nc2n(C2CCCC2)c1=O + Cc1nc(NC(=O)N2CCCC2C(N)=O)sc1-c1ccnc(C(C)(C)C(F)(F)F)c1", 66.7),
    ("CC(C)n1nc(-c2ccc3oc(N)nc3c2)c2c(N)ncnc21 + CC(Nc1ncnc2nc[nH]c12)c1cc2cccc(Cl)c2c(=O)n1-c1ccccc1", 107),
    ("CC(C)n1nc(-c2ccc3oc(N)nc3c2)c2c(N)ncnc21 + Cc1nc(NC(=O)N2CCCC2C(N)=O)sc1-c1ccnc(C(C)(C)C(F)(F)F)c1", 65),
    ("Cn1ncnc1[C@H]1c2n[nH]c(=O)c3cc(F)cc(c23)N[C@@H]1c1ccc(F)cc1 + Cc1nc(NC(=O)N2CCCC2C(N)=O)sc1-c1ccnc(C(C)(C)C(F)(F)F)c1", 62.2),
]

Turning to the following compound.
(Q) May I ask what viability, T/C has been recorded for Cn1ncnc1[C@H]1c2n[nH]c(=O)c3cc(F)cc(c23)N[C@@H]1c1ccc(F)cc1 + CC(Nc1ncnc2nc[nH]c12)c1cc2cccc(Cl)c2c(=O)n1-c1ccccc1 ?
(A) 102
